Target: T1, human PCSK9 (proprotein convertase subtilisin kexin type 9) (human, UniProt Q8NBP7 31-692)
T1 construct: Directly immobilized (SPR ProteOn), biotinylated (BLI), or in solution, depending on the assay; also called hPCSK9
T1 sequence (Q8NBP7 31-692 limits assumed): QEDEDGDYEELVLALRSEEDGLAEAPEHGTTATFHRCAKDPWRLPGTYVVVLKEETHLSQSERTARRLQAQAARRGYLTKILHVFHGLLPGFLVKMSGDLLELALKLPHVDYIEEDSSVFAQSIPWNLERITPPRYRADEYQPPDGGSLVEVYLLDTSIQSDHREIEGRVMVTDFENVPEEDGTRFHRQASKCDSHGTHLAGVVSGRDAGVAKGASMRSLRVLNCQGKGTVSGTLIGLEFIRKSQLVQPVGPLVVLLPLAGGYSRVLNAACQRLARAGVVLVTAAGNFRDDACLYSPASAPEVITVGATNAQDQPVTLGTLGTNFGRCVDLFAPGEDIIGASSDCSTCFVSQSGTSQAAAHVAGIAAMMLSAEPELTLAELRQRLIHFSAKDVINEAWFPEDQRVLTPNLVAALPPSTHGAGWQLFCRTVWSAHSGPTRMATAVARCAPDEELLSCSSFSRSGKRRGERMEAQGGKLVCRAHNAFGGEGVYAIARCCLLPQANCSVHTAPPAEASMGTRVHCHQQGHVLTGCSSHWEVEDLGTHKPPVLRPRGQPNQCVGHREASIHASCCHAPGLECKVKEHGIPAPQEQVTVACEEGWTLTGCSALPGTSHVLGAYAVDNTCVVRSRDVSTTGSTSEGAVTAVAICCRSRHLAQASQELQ
Test: BLI, biotinylated hPCSK9 on sensor tips
Description: Tips were then immersed into a buffer-only well for observation of Adnectin dissociation. Experiments were performed in a temperature controlled environment at either 25 or 37° C., and the oscillation speed was set at 1500 rpm. Binding interaction analysis was performed using proprietary software from Fortebio (Fortebio Data Analysis Software version 6.3.0.36). Global fits were performed for all samples, using a 1:1 binding model. […]
Could you please report measured kon for the items listed next?
Give bare numbers, in M⁻¹ s⁻¹.

Consider the worked cases shown below.
# Binder, kon [M⁻¹ s⁻¹]
measured = [
    ("2381B08 (designed binder, Anti-PCSK9 Adnectin, His6-tagged) MGVSDVPRDLEVVAATPTSLLISWDAPADGGYGYYRITYGETGGNSPVQEFTVPSSKGTATISGLKPGVDYTITVYAVEYTFPGAGYYHRPISINYRTEIDKPSQHHHHHH", 213000),
    ("ATI001114 (designed binder, PEGylated on the cysteine of the C-terminal GSGC tail (two-branched 40 kDa PEG), PEGylated version of the 2013E01 Adnectin, His6-tagged; also called ATI1114) MGVSDVPRDLEVVAATPTSLLISWVPPSDDYGYYRITYGETGGNSPVQEFTVPIGKGTATISGLKPGVDYTITVYAVEFPWPHAGYYHRPISINYRTGSGCHHHHHH", 80700),
    ("2381B02 (designed binder, Anti-PCSK9 Adnectin, His6-tagged) MGVSDVPRDLEVVAATPTSLLISWEPFSRLPGGGEYYRITYGETGGNSPLQQFTVPGSKGTATISGLKPGVDYTITVYAVEYPYDYSGYYHRPISINYRTEIDKPSQHHHHHH", 265000),
]

Shifting focus to the binder that follows.
Given item 2971A09 (designed binder, Anti-PCSK9 Adnectin, His6-tagged) MGVSDVPRDLEVVAATPTSLLISWDAPADDYGYYRITYGETGGNSPVQEFTVPIGKGTATISGLKPGVDYTITVYAVEFPWPHAGYYHRPISINYRTEIDKPSQHHHHHH , the value recorded as its kon is 399000
